The reported numbers originate from patent US10435376B2.

system: Eimeria tenella; experiment: Inhibitory effects of the derivatives on Eimeria tenella of chicken (60 ppm in feed); type: in vivo; conditions: broilers, 60 ppm in feed, 250,000 E. tenella oocysts, 5 days after inoculation
Measured Score (bloody stool score), listed per entry for reference.

{"Compound": "CCCCCCn1cnc(C(N)=O)c1C(N)=O [IST15162, 1-hexyl-1H-imidazole-4,5-dicarboxamide]", "System tested": "Eimeria tenella", "Score (bloody stool score)": "3 (50 to 75% of bloody stool)"}
{"Compound": "NC(=O)c1ncn(Cc2ccc(C(F)(F)F)cc2)c1C(N)=O [IST15051]", "System tested": "Eimeria tenella", "Score (bloody stool score)": 0}
{"Compound": "O=C(Nc1ccc([N+](=O)[O-])cc1)c1nc[nH]c1C(=O)Nc1ccc([N+](=O)[O-])cc1 [IST15009]", "System tested": "Eimeria tenella", "Score (bloody stool score)": "3 (50 to 75% of bloody stool)"}
{"Compound": "NC(=O)c1ncn(Cc2ccc(Oc3ccc(Cl)cc3)cc2)c1C(N)=O [IST15167]", "System tested": "Eimeria tenella", "Score (bloody stool score)": "3 (50 to 75% of bloody stool)"}
{"Compound": "NC(=O)c1ncn(Cc2ccc([N+](=O)[O-])cc2)c1C(N)=O [IST15045]", "System tested": "Eimeria tenella", "Score (bloody stool score)": 0}
{"Compound": "NC(=O)c1ncn(Cc2c(F)cccc2Cl)c1C(N)=O [IST15031]", "System tested": "Eimeria tenella", "Score (bloody stool score)": "1 (bloody stool below 25%)"}
{"Compound": "NC(=O)c1ncn(Cc2ccccc2F)c1C(N)=O [IST15043]", "System tested": "Eimeria tenella", "Score (bloody stool score)": 0}
{"Compound": "CCCn1cnc(C(N)=O)c1C(N)=O [IST15038, 1-propyl-1H-imidazole-4,5-dicarboxamide]", "System tested": "Eimeria tenella", "Score (bloody stool score)": "3 (50 to 75% of bloody stool)"}
{"Compound": "CCC(=O)NC(=O)c1ncn(Cc2ccc(Cl)cc2)c1C(=O)NC(=O)CC [IST15152]", "System tested": "Eimeria tenella", "Score (bloody stool score)": "3 (50 to 75% of bloody stool)"}
{"Compound": "CC(=O)NC(=O)c1ncn(Cc2ccc(Cl)cc2)c1C(=O)NC(C)=O [IST15151]", "System tested": "Eimeria tenella", "Score (bloody stool score)": "3 (50 to 75% of bloody stool)"}
{"Compound": "CCCCCn1cnc(C(N)=O)c1C(N)=O [IST15116, 1-pentyl-1H-imidazole-4,5-dicarboxamide]", "System tested": "Eimeria tenella", "Score (bloody stool score)": "3 (50 to 75% of bloody stool)"}
{"Compound": "NC(=O)c1ncn(Cc2cc([N+](=O)[O-])cc([N+](=O)[O-])c2)c1C(N)=O [IST15056]", "System tested": "Eimeria tenella", "Score (bloody stool score)": "3 (50 to 75% of bloody stool)"}
{"Compound": "COc1ccc(Cn2cnc(C(N)=O)c2C(N)=O)cc1 [IST15053]", "System tested": "Eimeria tenella", "Score (bloody stool score)": "3 (50 to 75% of bloody stool)"}

###

Measured response vs control in vivo at 60 ppm, 60 µg/mL, listed per entry for reference.
system: Eimeria tenella; assay: Inhibitory effects of the derivatives on Eimeria tenella of chicken (60 ppm in feed); format: in vivo; details: Eimeria tenella, 168 h; broilers, 60 ppm in feed, 250,000 E. tenella oocysts, relative to group 1 (not infected, not treated); read-out: Relative weight gain (%)
Readout: response vs control in vivo at 60 ppm, 60 µg/mL

{"Chemical string": "NC(=O)c1ncn(Cc2ccc(Cl)c(Cl)c2)c1C(N)=O", "Reading": "71.4%"}
{"Chemical string": "NC(=O)c1ncn(Cc2c(Cl)cccc2Cl)c1C(N)=O", "Reading": "79.8%"}
{"Chemical string": "CC(=O)NC(=O)c1ncn(Cc2ccc(Cl)cc2)c1C(=O)NC(C)=O", "Reading": "83.6%"}
